Biological target: farnesyl protein transferase (FPT), H-ras (Homo sapiens, UniProt P49354+P49356)
Test: FPT IC50 (H-ras), inhibition of farnesyl protein transferase, in vitro enzyme assay
Type: biochemical
Settings: Table 4; read-out: FPT IC50
Experimental: FPT IC50 (inhibition of farnesyl protein transferase, in vitro enzyme assay) and COS Cell IC50 (Cell-Based Assay) were determined following the assay procedures described in WO 95/10516, published Apr. 20, 1995. GGPT IC50 (inhibition of geranylgeranyl protein transferase, in vitro enzyme assay), Cell Mat Assay, and anti-tumor activity (in vivo anti-tumor studies) could be determined by the assay procedures described in WO 95/10516. […]
value_kind: pIC50
Note on pIC50: it is the negative log10 of concentration, concentration in mol/L.

Examples from the recorded data:
{"compound": "CN(C)S(=O)(=O)NCC(=O)N1CCC(CC(=O)N2CCC([C@H]3c4ncc(Br)cc4CCc4cc(Cl)cc(Br)c43)CC2)CC1 [Cmpd 38.0-B]", "endpoint_value": 8.49}
{"compound": "O=C(CO)N1CCC(CC(=O)N2CCC([C@H]3c4ncc(Br)cc4CCc4cc(Cl)cc(Br)c43)CC2)CC1 [Cmpd 37.0-B]", "endpoint_value": 8.59}
{"compound": "O=C(Cc1c[nH]cn1)N1CCC(CC(=O)N2CCC([C@H]3c4ncc(Br)cc4CCc4cc(Cl)cc(Br)c43)CC2)CC1 [Cmpd 30.0-B]", "endpoint_value": 8.54}

Summary for this compound, O=C(NO)C(=O)N1CCC(CC(=O)N2CCC([C@H]3c4ncc(Br)cc4CCc4cc(Cl)cc(Br)c43)CC2)CC1 [Cmpd 58.0-B] : pIC50 is 7.80

====

target: farnesyl protein transferase (FPT), K-ras (Homo sapiens, UniProt P49354+P49356); test: FPT IC50 (K-ras), inhibition of farnesyl protein transferase, in vitro enzyme assay
value_kind: pIC50
Note on pIC50: it is the negative log10 of concentration, concentration in mol/L.

Examples from the recorded data:
{"molecule": "O=C(CC1CCN(C(=O)[C@@H]2CCCN2)CC1)N1CCC([C@H]2c3ncc(Br)cc3CCc3cc(Cl)cc(Br)c32)CC1 [Example 12]", "pIC50": 7.46}
{"molecule": "Cc1cn(CC(=O)N2CCC(CC(=O)N3CCC([C@H]4c5ncc(Br)cc5CCc5cc(Cl)cc(Br)c54)CC3)CC2)cn1 [Example 11.0-B]", "pIC50": 7.90}
{"molecule": "O=C(CC1CCN(C(=O)CN2CCS(=O)(=O)CC2)CC1)N1CCC([C@H]2c3ncc(Br)cc3CCc3cc(Cl)cc(Br)c32)CC1 [Example 6.0-B]", "pIC50": 7.84}

Summary for this molecule, O=C(CC1CCN(C(=O)Cn2cnc3cccnc32)CC1)N1CCC([C@H]2c3ncc(Br)cc3CCc3cc(Cl)cc(Br)c32)CC1 [Example 13.0-B] : pIC50 is 7.71

Summary for this molecule, CN(C)CC(=O)N1CCC(CC(=O)N2CCC(C3c4ncc(Br)cc4CCc4cc(Cl)cc(Br)c43)CC2)CC1 (single isomer, unassigned; (+)) [Example 21] : pIC50 is 7.71

Summary for this molecule, Cc1nccn1CC(=O)N1CCC(CC(=O)N2CCC([C@H]3c4ncc(Br)cc4CCc4cc(Cl)cc(Br)c43)CC2)CC1 [Example 10.0-B] : pIC50 is 7.80

Summary for this molecule, N[C@@H](Cc1c[nH]cn1)C(=O)N1CCC(CC(=O)N2CCC([C@H]3c4ncc(Br)cc4CCc4cc(Cl)cc(Br)c43)CC2)CC1 [Example 11] : pIC50 is 7.31

====

Catalogue of IC50 readings, one per entry.
molecular target: farnesyl protein transferase (FPT), H-ras (Homo sapiens, UniProt P49354+P49356); experiment: FPT IC50 (H-ras), inhibition of farnesyl protein transferase, in vitro enzyme assay; type: biochemical; conditions: Table 4; read-out: FPT IC50
Form entry: value (nM) — number only.

Examples from the recorded data:
{"compound": "O=C(CC1CCN(C(=O)Cn2cnc(-c3ccccc3)c2)CC1)N1CCC([C@H]2c3ncc(Br)cc3CCc3cc(Cl)cc(Br)c32)CC1 [Cmpd 20.0-B]", "experimental_target": "farnesyl protein transferase (FPT), H-ras (Homo sapiens, UniProt P49354+P49356)", "value_kind": "IC50", "endpoint_value": 5.6}
{"compound": "NC(=O)CC(O)CC(=O)N1CCC(CC(=O)N2CCC([C@H]3c4ncc(Br)cc4CCc4cc(Cl)cc(Br)c43)CC2)CC1 (stereo partly shown) [Cmpd 92.0-B]", "experimental_target": "farnesyl protein transferase (FPT), H-ras (Homo sapiens, UniProt P49354+P49356)", "value_kind": "IC50", "endpoint_value": 2.2}
{"compound": "O=C(Cc1cccs1)N1CCC(CC(=O)N2CCC([C@H]3c4ncc(Br)cc4CCc4cc(Cl)cc(Br)c43)CC2)CC1 [Cmpd 82.0-B]", "experimental_target": "farnesyl protein transferase (FPT), H-ras (Homo sapiens, UniProt P49354+P49356)", "value_kind": "IC50", "endpoint_value": 7.1}

Summary for this compound, O=C(O)CCC(=O)N1CCC(CC(=O)N2CCC([C@H]3c4ncc(Br)cc4CCc4cc(Cl)cc(Br)c43)CC2)CC1 [Example 78] : IC50 is 1.2

Summary for this compound, O=C1NC(=O)C(CC(=O)N2CCC(CC(=O)N3CCC([C@H]4c5ncc(Br)cc5CCc5cc(Cl)cc(Br)c54)CC3)CC2)N1 (stereo partly shown) [Cmpd 77.0-B] : IC50 is 3.2

Summary for this compound, O=C(O)CCCCC(=O)N1CCC(CC(=O)N2CCC([C@H]3c4ncc(Br)cc4CCc4cc(Cl)cc(Br)c43)CC2)CC1 [Example 81] : IC50 is 3.6

Summary for this compound, CC(C)(C)OC(=O)N1CC(O)CC1C(=O)N1CCC(CC(=O)N2CCC(C3c4ncc(Br)cc4CCc4cc(Cl)cc(Br)c43)CC2)CC1 (stereo not shown) [Example 24.0-B] : IC50 is 0.7

Summary for this compound, CCOC(=O)c1c(C)ncn1CC(=O)N1CCC(CC(=O)N2CCC([C@H]3c4ncc(Br)cc4CCc4cc(Cl)cc(Br)c43)CC2)CC1 [Cmpd 53.0-B] : IC50 is 3.6

Summary for this compound, CN(C)C(=O)C(=O)N1CCC(CC(=O)N2CCC([C@H]3c4ncc(Br)cc4CCc4cc(Cl)cc(Br)c43)CC2)CC1 [Cmpd 33.0-B] : IC50 is 2.1

Summary for this compound, O=C(O)NC(=O)C(=O)N1CCC(CC(=O)N2CCC([C@H]3c4ncc(Br)cc4CCc4cc(Cl)cc(Br)c43)CC2)CC1 [Cmpd 59.0-B] : IC50 is 4

Summary for this compound, NCCC(=O)N1CCC(CC(=O)N2CCC([C@H]3c4ncc(Br)cc4CCc4cc(Cl)cc(Br)c43)CC2)CC1 [Cmpd 88.0-B] : IC50 is 2.2

Summary for this compound, Cc1nccn1CC(=O)N1CCC(CC(=O)N2CCC([C@H]3c4ncc(Br)cc4CCc4cc(Cl)cc(Br)c43)CC2)CC1 [Cmpd 10.0-B] : IC50 is 2.5

====

Catalogue of log10 of IC50 readings, one per entry.
test system: COS Cell; test: COS Cell IC50 (Cell-Based Assay); details: COS, Table 5; read-out: Cos Cell IC50
All values: base-10 log of IC50 in nM.

Examples from the recorded data:
{"chemical_string": "CN(C)S(=O)(=O)NCC(=O)N1CCC(CC(=O)N2CCC([C@H]3c4ncc(Br)cc4CCc4cc(Cl)cc(Br)c43)CC2)CC1", "log10 of IC50": 1.00}
{"chemical_string": "O=C(OCc1ccccc1)c1cccn1CC(=O)N1CCC(CC(=O)N2CCC([C@H]3c4ncc(Br)cc4CCc4cc(Cl)cc(Br)c43)CC2)CC1", "log10 of IC50": 2.30}
{"chemical_string": "CC(=O)C(=O)N1CCC(CC(=O)N2CCC([C@H]3c4ncc(Br)cc4CCc4cc(Cl)cc(Br)c43)CC2)CC1", "log10 of IC50": 1.00}
{"chemical_string": "CCOC(=O)c1ncn(CC(=O)N2CCC(CC(=O)N3CCC([C@H]4c5ncc(Br)cc5CCc5cc(Cl)cc(Br)c54)CC3)CC2)c1C", "log10 of IC50": 2.00}
{"chemical_string": "O=C(CC1CCN(C(=O)Cn2cnc([N+](=O)[O-])c2)CC1)N1CCC([C@H]2c3ncc(Br)cc3CCc3cc(Cl)cc(Br)c32)CC1", "log10 of IC50": 1.48}

Summary for this compound, O=C(C(=O)N1CCC(CC(=O)N2CCC([C@H]3c4ncc(Br)cc4CCc4cc(Cl)cc(Br)c43)CC2)CC1)c1cccs1 : log10 of IC50 is 1.45

Summary for this compound, NS(=O)(=O)NCC(=O)N1CCC(CC(=O)N2CCC([C@H]3c4ncc(Br)cc4CCc4cc(Cl)cc(Br)c43)CC2)CC1 : log10 of IC50 is 1.20

Summary for this compound, COC(=O)Cc1cn(CC(=O)N2CCC(CC(=O)N3CCC([C@H]4c5ncc(Br)cc5CCc5cc(Cl)cc(Br)c54)CC3)CC2)cn1 : log10 of IC50 is 1.70

Summary for this compound, O=C(CC1CCN(C(=O)Cn2cccc2)CC1)N1CCC([C@H]2c3ncc(Br)cc3CCc3cc(Cl)cc(Br)c32)CC1 : log10 of IC50 is 0.95

These data points were gathered from patent US6387905B2.
